target: UniProt:P21447; assay: biochemical; conditions: absence of AMPPNP
Sequence (P21447 whole entry): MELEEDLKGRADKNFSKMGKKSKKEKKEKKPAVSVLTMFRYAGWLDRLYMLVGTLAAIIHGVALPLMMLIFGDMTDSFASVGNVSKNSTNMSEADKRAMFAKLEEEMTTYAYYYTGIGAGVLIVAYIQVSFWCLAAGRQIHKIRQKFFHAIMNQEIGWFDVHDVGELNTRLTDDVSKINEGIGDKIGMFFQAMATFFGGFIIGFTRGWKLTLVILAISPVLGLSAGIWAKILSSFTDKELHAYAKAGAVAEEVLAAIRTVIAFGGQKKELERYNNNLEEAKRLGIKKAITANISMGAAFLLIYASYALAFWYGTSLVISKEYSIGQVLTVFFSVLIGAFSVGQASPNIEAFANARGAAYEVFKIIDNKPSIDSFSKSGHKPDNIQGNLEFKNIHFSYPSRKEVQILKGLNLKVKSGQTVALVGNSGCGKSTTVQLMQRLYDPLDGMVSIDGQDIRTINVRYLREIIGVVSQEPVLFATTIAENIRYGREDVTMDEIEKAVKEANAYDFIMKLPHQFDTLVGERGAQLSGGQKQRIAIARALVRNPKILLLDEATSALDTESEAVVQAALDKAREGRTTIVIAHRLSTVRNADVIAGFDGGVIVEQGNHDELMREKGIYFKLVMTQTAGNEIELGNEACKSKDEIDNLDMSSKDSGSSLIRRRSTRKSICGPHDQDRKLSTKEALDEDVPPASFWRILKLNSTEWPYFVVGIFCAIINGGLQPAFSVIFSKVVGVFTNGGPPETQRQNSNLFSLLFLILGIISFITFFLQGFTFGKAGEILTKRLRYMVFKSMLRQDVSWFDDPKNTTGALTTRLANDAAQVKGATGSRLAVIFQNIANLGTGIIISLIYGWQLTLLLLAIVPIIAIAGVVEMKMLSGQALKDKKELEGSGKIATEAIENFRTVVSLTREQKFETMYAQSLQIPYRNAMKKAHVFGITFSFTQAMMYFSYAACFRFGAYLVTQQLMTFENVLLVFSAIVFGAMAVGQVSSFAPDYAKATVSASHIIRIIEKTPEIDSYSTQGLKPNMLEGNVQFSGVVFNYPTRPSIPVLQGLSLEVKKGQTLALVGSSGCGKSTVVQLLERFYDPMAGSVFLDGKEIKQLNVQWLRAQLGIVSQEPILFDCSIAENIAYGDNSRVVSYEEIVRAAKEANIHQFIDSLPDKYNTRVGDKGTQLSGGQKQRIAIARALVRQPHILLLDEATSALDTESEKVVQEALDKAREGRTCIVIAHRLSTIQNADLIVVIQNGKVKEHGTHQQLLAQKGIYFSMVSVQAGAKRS
reportedEndpoint: Kd (nM)
Enter your answer as a number in nM; do not include the unit.

CC[C@@]1(O)C(=O)OCc2c1cc1n(c2=O)Cc2cc3c(CN(C)C)c(O)ccc3nc2-1; 2470

Lab note: next compound to report on.
Q: Please look up its Kd: CCc1c2c(nc3ccc(O)cc13)-c1cc3c(c(=O)n1C2)COC(=O)[C@]3(O)CC
Result: 3530
